Cited source for all entries: patent US9724351B2

# Protocol text: Cytotoxicity Determination
# Format: cell-based
# Condition notes: human, HEp-2 cells, without addition of virus, CCK-8 readout, bins (Table 4: greater than 100 μM; Table 5: equal to or less than 100 μM and greater than 10 μM), read-out: 50% cytotoxicity concentration (CC50)
# Procedure: In order to determine the compound cytotoxicity, in parallel, each of the compounds is applied to duplicate wells in a 384-well cell plate at serial final concentrations starting from 100 μM using ½ stepwise dilutions for 7 points without addition of virus. Incubate the cells at 37° C., 5% CO2 for 5 days. Add 6 μl CCK-8 into each well and incubate in a CO2 incubator at 37° C. for 3-4 hours. […]
# CC50 at 5 days values compiled below

{"Smiles record": "COc1ccc(C(=O)CNC(=O)c2ccc(OCCO)c(C)c2)nc1-c1ccc(F)c(Cl)c1", "CC50 at 5 days": "> 100 µM"}
{"Smiles record": "COc1ccc(C(=O)NCC(=O)N/N=C(\\C)c2coc3ccccc23)cc1OC", "CC50 at 5 days": "> 100 µM"}

// query Which measured CC50 at 5 days value corresponds to COc1ccc(C(=O)NCC(=O)N/N=C(\C)c2csc3ccc(O)cc23)cc1OC ?
// result 10 to 100 µM

// query Can you share its CC50 at 5 days? I mean this compound: COc1cc(C(=O)N[C@@H](C)C(=O)c2ccc(OC)c(-c3ccc(F)c(C(F)(F)F)c3)n2)ccc1OCCO
// result 10 to 100 µM

// query # CC50 at 5 days lookup, item COc1cc(C(=O)NCC(=O)c2ccc(OC)c(-c3ccc(Cl)c(Cl)c3)n2)ccc1OCCO
// result > 100 µM

// query What measured CC50 at 5 days goes with COc1cc(C(=O)NCC(=O)N(C)/N=C/c2c(C)sc3c(F)cccc23)ccc1OCCO ?
// result 10 to 100 µM
